Kindly state growth for each of the entries shown.
system: IGROV1 ovarian; assay: NCI-60 one-dose screen, 48 h (100 = growth as untreated, 0 = no growth, -100 = all killed); conditions: 10 µM unless noted
This is part of a sample that, as a whole, favours compounds with a hit. Of some 83,000 tested, about 20% had one in any assay.
Record the value in %, omitting the unit from your answer.

The recorded growth for entry `OCCN=Cc1c[nH]c2ccccc12` equals 104

The recorded growth for entry `C/C(=C(\c1ccc(OCCN2CCOCC2)cc1)c1ccc(OC(=O)Cc2ccccc2)cc1)c1ccc(Cl)cc1` equals 106

The recorded growth for entry `CC[C@H](C)[C@H](NC(=O)c1cnccn1)C(=O)N(C)[C@H](C[C@@H](OC(C)=O)c1nc(C(=O)N[C@@H](Cc2ccccc2)C[C@H](C)C(=O)OC)cs1)C(C)C` equals 32

The recorded growth for entry `CC[C@H](C)[C@H](NC(=O)[C@H]1CCCCN1C)C(=O)N(C)[C@H](C(=O)NC12CC(C(=O)N[C@@H](Cc3ccccc3)C[C@H](C)C(=O)OC)(C1)C2)C(C)C` equals 105

The recorded growth for entry `C=C[Se]CC(=O)/C=C/c1ccccc1` equals 104

The recorded growth for entry `O=S(=O)(F)c1cccc(Cl)c1C[P+](c1ccccc1)(c1ccccc1)c1ccccc1` equals 85.4

The recorded growth for entry `CN1[C@@H](CC(=O)c2ccccc2)CCC[C@H]1CC(=O)c1ccccc1` equals 26.5

The recorded growth for entry `O=C1CN2CCC1CC2` equals 108

The recorded growth for entry O=C1c2ccccc2C(=O)N1N1CC1c1ccccc1 (centres undefined) equals 95.4

The recorded growth for entry `Cc1cc(NC(=O)NCCCOc2ccc(N3C(N)=NC(N)=NC3(C)C)cc2Cl)ccc1S(=O)(=O)F` equals 25

The recorded growth for entry CC12CCC3C(CCC4CC(O)CCC43C)C1CCC2=O (centres undefined) equals 38.9

The recorded growth for entry `O=[N+]([O-])c1cc(Br)c(O)c(Br)c1` equals 111

The recorded growth for entry `Oc1ccccc1C=NCCN=Cc1ccccc1O` equals 118

The recorded growth for entry `CNC(=O)O/N=C(\SC)C(=O)N(C)C` equals 110

The recorded growth for entry `Nc1cccnc1` equals 106

The recorded growth for entry `Oc1cc(N2CC2)c(O)cc1N1CC1` equals -38.3

The recorded growth for entry `O=CC1(c2ccccc2)CCN(Cc2ccccc2)CC1` equals 108

The recorded growth for entry C[N+]12CCC34C5=CC(=O)C(=O)C=C5[N+]5(C)C(=O)CC6OCC=C(C1)C(CC32)C6C45 (centres undefined) equals 96.9

The recorded growth for entry `CNC(=O)CCl` equals 107

The recorded growth for entry `Cc1nnc([S-])o1.[Au+].c1ccc([PH+](c2ccccc2)c2ccccc2)cc1` equals 20.9

The recorded growth for entry `O=C(NC(Cl)=C(Cl)Cl)P(=O)(c1ccccc1)c1ccccc1` equals 95

The recorded growth for entry `CCN(CC)CCn1c(=O)n(C)c2ccccc21` equals 109

The recorded growth for entry `C[C@]12CC[C@H]3[C@@H](C[C@@H]4SC(Nc5cccc(F)c5)=N[C@@]45CC(=O)CC[C@]35C)[C@@H]1CCC2=O` equals 60

The recorded growth for entry `[N-]=[N+]=CC(=O)CCC(=O)C=[N+]=[N-]` equals 49.2

The recorded growth for entry `C[C@]12CC[C@H]3[C@@H](C[C@@H]4SC(Nc5ccccc5)=N[C@@]45C/C(=N/O)CC[C@]35C)[C@@H]1CCC2=O` equals 88.4

The recorded growth for entry `CC(=O)Cc1ccc2c(c1)OCO2` equals 111

The recorded growth for entry `CCOC(=O)P(=O)(OCC)OCC` equals 89.5

The recorded growth for entry `CC[C@H](C)[C@H](NC(=O)[C@H]1CCCCN1C)C(=O)N(C)[C@H](C[C@@H](OC(C)=O)c1nc(C(=O)N[C@@H](Cc2ccccc2)C[C@H](C)C(=O)O)cs1)C(C)C` equals 30.2

The recorded growth for entry `COc1ccc(O)c2c(=O)c3c(OC)cc4c(c3oc12)[C@@H]1C=CO[C@@H]1O4` equals 16.3

The recorded growth for entry `CSc1cc(/C=C(\C)[C@@H]2C[C@@H]3O[C@]3(C)CCC[C@H](C)[C@H](O)[C@@H](C)C(=O)C(C)(C)[C@@H](O)CC(=O)O2)n(CCNC(=O)OC(C)(C)C)n1` equals 54.4

The recorded growth for entry `ClCc1ccc(Cl)c(Cl)c1` equals 94.7

The recorded growth for entry `CCOP(=O)(OCC)C(=O)N(CC)CC` equals 112

The recorded growth for entry `CC1(C)S[C@H]2CC[C@H]3OC(=O)[C@@H]1N23` equals 39.4

The recorded growth for entry `S=P(SP(=S)(c1ccccc1)c1ccccc1)(c1ccccc1)c1ccccc1` equals 119
